# System: Fibroblast
# method.summary: Multiplex assay against human fibroblast
# Format: toxicity, cell-based
# condition.parameters: 24 h, 1 µM, compound concentration 1 uM, replicate 2
Would you kindly list Population Hoechst High Intensity Objects (%) for each of these compounds?
Answers are plain numbers, in %.

Some solved entries appear below for comparison.
{"columns": ["compound", "units.symbol", "numeric.result"],
 "data": [
  ["N#CCNC(=O)c1ccc(-c2ccnc(Nc3ccc(N4CCOCC4)cc3)n2)cc1", "%", 10],
  ["Cc1ccc(S(=O)(=O)NC2c3ccccc3Oc3ccccc32)cc1", "%", 7],
  ["CCOC(=O)CCNc1cc(N2CCc3ccccc3CC2)nc(-c2ccccn2)n1", "%", 26]
]}

Report Population Hoechst High Intensity Objects (%) for each item below.
1. N#Cc1cccc(C(=O)Nc2cc(-c3ccccc3)nn2-c2ccccc2)c1
2. CC(C)c1cc(Nc2nc(N3CCC[C@H](N)C3)ncc2C(N)=O)cc(C(C)C)n1
3. Cl.Cn1c2c(c3ccc(Cl)c(Cl)c31)C(C#N)C1(CCNCC1)NC2=O (stereo not drawn)

1: 4; 2: 5; 3: 29

---

# Tested on: Fibroblast
# method.summary: Multiplex assay against human fibroblast
# Format: toxicity, cell-based
# condition.parameters: 24 h, 1 µM, compound concentration 1 uM, replicate 2
Would you kindly list Population Pyknosed Nuclei (%) for each of these molecules?
Numbers only, in %.

Some solved entries appear below for comparison.
{"columns": ["molecule", "reported.metric", "units.symbol", "numeric.result"],
 "data": [
  ["CN1C(=O)[C@@H](NC(=O)c2cc3ccccc3[nH]2)N=C(c2ccccc2)c2ccccc21 [DEVAZEPIDE]", "Population Pyknosed Nuclei (%)", "%", 10],
  ["Cc1c(Nc2ccc(S(=O)(=O)N3CCN(C)CC3)cc2F)nc2ccc(-c3cnn(C4CC4)c3)cn2c1=O", "Population Pyknosed Nuclei (%)", "%", 6]
]}

Report Population Pyknosed Nuclei (%) for each item below.
1. CC(Cc1ccc(O)c(O)c1)C(C)Cc1ccc(O)c(O)c1 (stereo not given) [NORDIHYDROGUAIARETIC ACID]
2. CN(c1cc(C(F)(F)F)nc(OCCC(=O)O)n1)c1cccc2c1CCC2
3. C[C@@H](Oc1cc(-n2cnc3ccc(CN4CCN(C)CC4)cc32)sc1C(N)=O)c1ccccc1C(F)(F)F [GSK-461364]
4. Oc1cccc(-c2nc(N3CCOCC3)c3oc4ncccc4c3n2)c1 [PI-103]

1. 2
2. 0
3. 17
4. 16

Report Population Pyknosed Nuclei (%) for each item below.
1. CC(C)[C@H](CO)Nc1nc(Nc2cccc(Cl)c2)c2ncn(C(C)C)c2n1 [PURVALANOLA]
2. Cc1ccc(S(=O)(=O)NC2c3ccccc3Oc3ccccc32)cc1
3. N#CCNC(=O)c1ccc(-c2ccnc(Nc3ccc(N4CCOCC4)cc3)n2)cc1 [MOMELOTINIB]

1. 8
2. 6
3. 5

Reported Population Pyknosed Nuclei (%) ( CCCc1cc(C)[nH]c(=O)c1CNC(=O)c1cc(-c2ccc(N3CCN(C(C)C)CC3)nc2)cc2c1cnn2C(C)C ) = 27

---

# Tested on: HEK-293T
# method.summary: Multiplex assay against HEK293T
# Type: toxicity, cell-based
# condition.parameters: human, 12 h, 10 µM, compound concentration 10 uM, replicate 2
Would you kindly list Population Apoptotic (%) for each of these compounds?
Record the result as number plus unit.

{"columns": ["compound", "Population Apoptotic (%)"],
 "data": [
  ["Cc1ccc(NC(=O)Nc2cc(C(F)(F)F)ccc2F)cc1Nc1ccc2c(c1)NC(=O)/C2=C\\c1ccc[nH]1", "4%"],
  ["CC(C)C[C@H](NC(=O)[C@H](Cc1ccccc1)NC(=O)CNC(=O)CNC(=O)[C@@H](N)Cc1ccc(O)cc1)C(=O)O [ENKEPHALIN]", "9%"],
  ["Cc1c(Nc2ccc(S(=O)(=O)N3CCN(C)CC3)cc2F)nc2ccc(Nc3cnn(C4CC4)c3)cn2c1=O", "4%"],
  ["CC(Cc1ccc(O)c(O)c1)C(C)Cc1ccc(O)c(O)c1 (stereo not drawn) [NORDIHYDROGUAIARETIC ACID]", "11%"],
  ["N#CCNC(=O)c1ccc(-c2ccnc(Nc3ccc(N4CCOCC4)cc3)n2)cc1 [MOMELOTINIB]", "10%"],
  ["CC(C)[C@H](CO)Nc1nc(Nc2cccc(Cl)c2)c2ncn(C(C)C)c2n1 [PURVALANOLA]", "53%"],
  ["N#Cc1cccc(C(=O)Nc2cc(-c3ccccc3)nn2-c2ccccc2)c1", "45%"]
]}

Turning now to a further compound:
Reported Population Apoptotic (%) ( CCOc1ccn(-c2ccc(F)cc2)c(=O)c1C(=O)Nc1ccc(Oc2ccnc(N)c2Cl)c(F)c1 [BMS-777607] ) = 15%

---

Would you kindly list Population Membrane Permeable-Phenotype (%) for each of these compounds?
# Test system: HEK-293T
# method.summary: Multiplex assay against HEK293T
# Assay type: toxicity, cell-based
# condition.parameters: human, 24 h, 1 µM, compound concentration 1 uM, replicate 1
Numbers only, in %.

Some solved entries appear below for comparison.
{"columns": ["compound", "units.symbol", "numeric.result"],
 "data": [
  ["CN1C(=O)[C@@H](NC(=O)c2cc3ccccc3[nH]2)N=C(c2ccccc2)c2ccccc21 [DEVAZEPIDE]", "%", 3],
  ["Cc1ccc(S(=O)(=O)NC2c3ccccc3Oc3ccccc32)cc1", "%", 4]
]}

Report Population Membrane Permeable-Phenotype (%) for each item below.
1. CCCc1cc(C)[nH]c(=O)c1CNC(=O)c1cc(-c2ccc(N3CCN(C(C)C)CC3)nc2)cc2c1cnn2C(C)C
2. N#Cc1cccc(C(=O)Nc2cc(-c3ccccc3)nn2-c2ccccc2)c1
3. CC(C)c1cc(Nc2nc(N3CCC[C@H](N)C3)ncc2C(N)=O)cc(C(C)C)n1

4
4
5

---

# System: HEK-293T
# method.summary: Multiplex assay against HEK293T
# Type: toxicity, cell-based
# condition.parameters: human, 12 h, 1 µM, compound concentration 1 uM, replicate 2
reported.metric: Population Healthy Nuclei (%)
Give bare numbers, in %.

{"columns": ["compound.structure.string", "units.symbol", "Population Healthy Nuclei (%)"],
 "data": [
  ["C[C@@H](Oc1cc(-n2cnc3ccc(CN4CCN(C)CC4)cc32)sc1C(N)=O)c1ccccc1C(F)(F)F", "%", 33],
  ["CCOc1ccn(-c2ccc(F)cc2)c(=O)c1C(=O)Nc1ccc(Oc2ccnc(N)c2Cl)c(F)c1", "%", 89],
  ["Oc1cccc(-c2nc(N3CCOCC3)c3oc4ncccc4c3n2)c1", "%", 13]
]}

Report Population Healthy Nuclei (%) for each item below.
1. CC[C@@H]1C(=O)N(C)c2cnc(Nc3ccc(C(=O)NC4CCN(C)CC4)cc3OC)nc2N1C1CCCC1
2. Cc1ccc(S(=O)(=O)NC2c3ccccc3Oc3ccccc32)cc1

82
49

Report Population Healthy Nuclei (%) for each item below.
1. Cc1c(Nc2ccc(S(=O)(=O)N3CCN(C)CC3)cc2F)nc2ccc(Nc3cnn(C4CC4)c3)cn2c1=O
2. Cl.NC[C@@H]1O[C@H](C23CC4CC(CC(C4)C2)C3)Cc2c1ccc(O)c2O

1: 83; 2: 47

So the reported Population Healthy Nuclei (%) for Cc1ccc(NC(=O)Nc2cc(C(F)(F)F)ccc2F)cc1Nc1ccc2c(c1)NC(=O)/C2=C\c1ccc[nH]1 , on HEK-293T, turned out to be 83

---

# System: Fibroblast
# method.summary: Multiplex assay against human fibroblast
# Type: toxicity, cell-based
# condition.parameters: 24 h, 1 µM, compound concentration 1 uM, replicate 1
Would you kindly list Population Mitochondria Different-Phenotype (%) for each of these compounds?
Give bare numbers, in %.

Some solved entries appear below for comparison.
{"columns": ["compound", "target.under.test", "numeric.result"],
 "data": [
  ["Oc1cccc(-c2nc(N3CCOCC3)c3oc4ncccc4c3n2)c1", "Fibroblast", 5],
  ["NC(=O)c1ccc2nc(-c3ccc(C4(N)CCC4)cc3)c(-c3ccccc3)n2n1", "Fibroblast", 2],
  ["CN1C(=O)[C@@H](NC(=O)c2cc3ccccc3[nH]2)N=C(c2ccccc2)c2ccccc21 [DEVAZEPIDE]", "Fibroblast", 14],
  ["COc1cc(Nc2ccnc3ccc(Br)cc23)cc(OC)c1OC", "Fibroblast", 1],
  ["CN(c1cc(C(F)(F)F)nc(OCCC(=O)O)n1)c1cccc2c1CCC2", "Fibroblast", 7],
  ["N#Cc1cccc(C(=O)Nc2cc(-c3ccccc3)nn2-c2ccccc2)c1", "Fibroblast", 6],
  ["CC(Cc1ccc(O)c(O)c1)C(C)Cc1ccc(O)c(O)c1 (centres undefined) [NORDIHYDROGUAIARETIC ACID]", "Fibroblast", 3]
]}

Turning now to a further compound:
Reported Population Mitochondria Different-Phenotype (%) ( CC(/C=C1\SC(=S)N(CCCC(=O)Nc2ccc(C(=O)O)c(O)c2)C1=O)=C\c1ccccc1 ) = 1
